System: MS2 coat protein
Assay: apparent KD of MS2 coat protein; designed switch direction (-1 OFF switch, 1 ON switch): -1; higher = weaker reporter binding
Settings: Eterna round: R95; input ligand: microRNA oligo, concentration not stated
QUANTITY: apparent KD of MS2 coat protein (nM)
A number alone suffices; assume nM.

Answered cases to consult:
>  <SEQUENCE_ENTRY>
AGUUGUUGUUUCCGUUCUUACAUGAGGAUCACCCAUGUUUCUUGUCGUGCUCGCGUUGCUCGUCUGGCUGCCUGUUG [salish99_TOv1_r3_069] (puzzle: Sensor v3, turn-off variant 1)

>  <UNIT_TEXT>
nM

>  <apparent KD of MS2 coat protein>
35.2

$$$$
>  <SEQUENCE_ENTRY>
GACUAGGCAGGAUAUACAUGAGGAUCACCCAUGUGUCUGCGUUAAGCACGUGAAGACGGUAGAAGGGCCUACAC [ChP 13.04.2015 #18] (puzzle: Exclusion 3)

>  <UNIT_TEXT>
nM

>  <apparent KD of MS2 coat protein>
13

$$$$

So what does the record say about apparent KD of MS2 coat protein for GUAUCGUGAGGAUAUCUAGACUGACUUAGUACAUGUCAGCUGGAGAAGGCACAUGAGGAUCACCCAUGUGAUUA (puzzle: Exclusion 4) ?
22.2

Here is the next sequence: CAGGAUAGAGGAUAUACAUAGAUACAGAUUCAUGUAAUCCUACAUGAGGAUCACCCAUGUAGAAGGCUAUCCUG [Fiskers Ex 2 - 16] (puzzle: Exclusion 2)
15.4

Here is the next sequence: CUGGUCCGAGGAUAUAUUAUGUGAUACAUGAGGAUCACCCAUGUAAUAUGAUGGAAGUAAAUAGAAGGCGGACUAG [Mat - Exclusion 5 - JL mod - D46] (puzzle: Exclusion 5)
55.8

---

Tested on: MS2 coat protein
Test: apparent KD of MS2 coat protein; designed switch direction (-1 OFF switch, 1 ON switch): -1; higher = weaker reporter binding
Settings: input ligand: none
QUANTITY: apparent KD of MS2 coat protein (nM)
A number alone suffices; assume nM.

Answered cases to consult:
>  <SEQUENCE_ENTRY>
UUCCAACAUGAGGAUCACCCAUGUCAGGAUAUGCGACCUCCACCACCAACCUCACCUCGCAGAAGGGACACACC [Mod-Cyanosaur/default-title] (Eterna round: R97, puzzle: Exclusion 1)

>  <QUANTITY>
apparent KD of MS2 coat protein

>  <EXPERIMENTAL_VALUE>
23.7

$$$$
>  <SEQUENCE_ENTRY>
AUGUGACAUGAGGAUCACCCAUGUGAGGAUAUCAUGCUUCGUAGUAAACUACGAAGUGUGAGAAGGCACAUAAC [Omei Ex1 E7] (Eterna round: R97, puzzle: Exclusion 1)

>  <QUANTITY>
apparent KD of MS2 coat protein

>  <EXPERIMENTAL_VALUE>
80.2

$$$$
>  <SEQUENCE_ENTRY>
GCCUUAGGAGUCAGGAUAUACAAUAAAAUAAUUAAGUAGAAGGGACAUGAGGAUCACCCAUGUACAUUACAUUG [alecazam29] (Eterna round: R97, puzzle: Brourd's mod of Exclusion 4)

>  <QUANTITY>
apparent KD of MS2 coat protein

>  <EXPERIMENTAL_VALUE>
13.6

$$$$
>  <SEQUENCE_ENTRY>
UACAUGAGGAUCACCCAUGUUUUGUCGUGUUUGGUACCCGUUUAGGAUAUCGUGUUAUUGUAUCGCGAGAAGGAGAGUAUCUUU [Excl-NG3-LRO09] (Eterna round: R96, puzzle: Exclusion NG 3)

>  <QUANTITY>
apparent KD of MS2 coat protein

>  <EXPERIMENTAL_VALUE>
27

$$$$
>  <SEQUENCE_ENTRY>
AACCUGAGGCAAAGCUUUAGGCUUACAUGAGGAUCACCCAUGUAGGAUAUGGUAGGCAAAGCUUACCAGAAGGACAUGGAAAUU [Mat - Exclusion NG 3 - Mod of JL - D24] (Eterna round: R96, puzzle: Exclusion NG 3)

>  <QUANTITY>
apparent KD of MS2 coat protein

>  <EXPERIMENTAL_VALUE>
130

$$$$
>  <SEQUENCE_ENTRY>
UCAAUGCGAGGAUAUACGCACAAUUACAUGAGGAUCACCCAUGUCAUGAACUUUGGUAAGGUAGAAGGCGCUCCGU [Eternabot (L1) Solution 13] (Eterna round: R97, puzzle: Exclusion 5)

>  <QUANTITY>
apparent KD of MS2 coat protein

>  <EXPERIMENTAL_VALUE>
41

$$$$

So what does the record say about apparent KD of MS2 coat protein for ACAUGAGGAUCACCCAUGUGACCACGAUGGCUGAUGUAAAGACAGGAUAUGUGUGAAUAUCUAUCACAGAAGGGUCUUGACUGG [Deportation 55 - Jieux - Exclusion NG 3] (Eterna round: R96, puzzle: Exclusion NG 3) ?
30.6

Here is the next sequence: AUAAUACAUGUAGGAUAUGCGUGGCGAAGCUAUGCAGAAGGACAUGAGGAUCACCCAUGUUCUAGCGUCUGCGUACAGAUGCUA [JL eng1 1.35 mod 1] (Eterna round: R96, puzzle: Exclusion NG 1)
18.1

Here is the next sequence: GUCUUGAUAGGAUAUACAUGAGGAUCACCCAUGUCCCACCCGUUACCUCUGACCCUAUGUAGAAGGAUCGUCUG [Exy#18] (Eterna round: R97, puzzle: Exclusion 3)
35.5
